# Assay method text: Quantitative High-Throughput drug screen in 47 multiple myeloma cell lines against the NCATS MIPE library collection: KMS12PE_JCRB cell viability assay (AID 1918972); note: nearly all actives have a fitted effect of over 30% in size;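 for viability: 100% = DMSO only wells and 0% = wells with media alone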
# Applied conditions: KMS12PE myeloma viability, CellTiter-Glo ATP, 48 h; series mostly up to 45.8 µM
Results filed as inconclusive are left out. Active and inactive are the calls of the source. Calls come from the whole dose curve; as a rule, active = well fitted cell-killing curve with a large enough effect; inconclusive = small, poorly fitted or top-dose-only effect, or effect the other way; inactive = no such curve, though single readings can be large or run the other way.
Possible outcomes: 1.0 for active, 0.0 for inactive

# Compound, Label class
data = [
    ("CCN(CC)CCn1c(=O)c(Cc2ccc(OC)cc2)nc2ccccc21", 0.0),
    ("NC(=O)N1c2ccccc2CC(=O)c2ccccc21", 0.0),
    ("CC(=O)Oc1ccccc1C(=O)Nc1ncc([N+](=O)[O-])s1", 1.0),
    ("C[C@@H]1CN(c2c(F)c(N)c3c(=O)c(C(=O)O)cn(C4CC4)c3c2F)C[C@H](C)N1", 0.0),
    ("Cn1c(=O)c2c(ncn2CC(O)CO)n(C)c1=O (stereo unspecified)", 0.0),
    ("Cc1nnc(NS(=O)(=O)c2ccc(N)cc2)s1", 1.0),
    ("O=P(O)(O)C(O)(Cc1cccnc1)P(=O)(O)O", 0.0),
    ("COC(c1ccccc1)(c1ccccc1)[C@H](Oc1nc(C)cc(C)n1)C(=O)O", 0.0),
    ("CCCCc1oc2ccc(NS(C)(=O)=O)cc2c1C(=O)c1ccc(OCCCN(CCCC)CCCC)cc1", 1.0),
    ("Nc1nc(N)nc(-c2cc(Cl)ccc2Cl)n1", 0.0),
    ("OC(Cn1cncn1)(Cn1cncn1)c1ccc(F)cc1F", 0.0),
    ("NCCCC(O)(P(=O)(O)O)P(=O)(O)O", 0.0),
    ("O=C(O)c1cc(=O)[nH]c(=O)[nH]1", 0.0),
    ("O=c1oc2c(O)c(O)cc3c(=O)oc4c(O)c(O)cc1c4c23", 0.0),
    ("Cc1ccnc2c1NC(=O)c1cccnc1N2C1CC1", 0.0),
    ("CCOC(=O)[C@H](CCc1ccccc1)N[C@H]1CS[C@H](c2cccs2)CN(CC(=O)O)C1=O", 1.0),
    ("CC1(C)[C@H](C(=O)O)N2C(=O)C[C@H]2S1(=O)=O", 0.0),
    ("Cc1cccc(Nc2ccncc2S(=O)(=O)NC(=O)NC(C)C)c1", 0.0),
    ("CCC(=O)O[C@]1(C(=O)SCF)[C@H](C)C[C@H]2[C@@H]3C[C@H](F)C4=CC(=O)C=C[C@]4(C)[C@@]3(F)[C@@H](O)C[C@@]21C", 0.0),
    ("O=C(O)c1cccnc1", 0.0),
    ("CNC(=O)c1cc(Oc2ccc(NC(=O)Nc3ccc(Cl)c(C(F)(F)F)c3)cc2)ccn1", 1.0),
    ("CCc1c2c(nc3ccc(OC(=O)N4CCC(N5CCCCC5)CC4)cc13)-c1cc3c(c(=O)n1C2)COC(=O)[C@]3(O)CC", 1.0),
    ("COc1cc(NS(=O)(=O)c2ccc(N)cc2)nc(OC)n1", 0.0),
    ("NNC(=O)c1ccncc1", 0.0),
    ("CCC(C)(C)c1ccc(CC(C)CN2C[C@@H](C)O[C@@H](C)C2)cc1 (stereo partly specified)", 0.0),
    ("CCCc1cc(C(N)=S)ccn1", 0.0),
    ("O=C(O)CSCC(=O)NC1CCSC1=O (stereo unspecified)", 0.0),
    ("Cc1ccc(S(=O)(=O)N[C@@H](Cc2ccccc2)C(=O)CCl)cc1", 1.0),
    ("CCOC(=O)c1ccc(C#Cc2ccc3c(c2)C(C)(C)CCS3)nc1", 1.0),
    ("CC(C)C1CCC(C(=O)N[C@H](Cc2ccccc2)C(=O)O)CC1 (stereo partly specified)", 0.0),
    ("Cc1noc(NS(=O)(=O)c2ccc(N)cc2)c1C", 0.0),
    ("O=C(N[C@H](CO)[C@H](O)c1ccc([N+](=O)[O-])cc1)C(Cl)Cl", 0.0),
    ("CCOC(=O)[C@H](CCc1ccccc1)N[C@H]1CCc2ccccc2N(CC(=O)O)C1=O", 1.0),
    ("COc1ncnc(NS(=O)(=O)c2ccc(N)cc2)c1OC", 0.0),
    ("CC(C)OC(=O)OCOP(=O)(CO[C@H](C)Cn1cnc2c(N)ncnc21)OCOC(=O)OC(C)C", 1.0),
    ("CC1=C(C(=O)O)N2C(=O)[C@@H](NC(=O)C(N)c3ccccc3)[C@H]2SC1 (stereo partly specified)", 0.0),
    ("C1CCC(C(CC2CCCCN2)C2CCCCC2)CC1 (stereo unspecified)", 1.0),
    ("CCN1CCCC1CNC(=O)c1cc(S(N)(=O)=O)ccc1OC (stereo unspecified)", 0.0),
    ("COc1ccccc1OCC(O)COC(N)=O (stereo unspecified)", 0.0),
    ("CCCc1nc(C)c2c(=O)[nH]c(-c3cc(S(=O)(=O)N4CCN(CC)CC4)ccc3OCC)nn12", 1.0),
    ("C[C@]12C=CC(=O)C=C1CC[C@@H]1[C@@H]2C(=O)C[C@@]2(C)[C@H]1CC[C@]2(O)C(=O)CO", 0.0),
    ("Oc1c(Cl)cc(Cl)c2cccnc12", 1.0),
    ("CC(C)NCC(O)c1ccc(NS(C)(=O)=O)cc1 (stereo unspecified)", 0.0),
    ("COc1ccc(-c2ccc3cc(C(=O)O)ccc3c2)cc1C12CC3CC(CC(C3)C1)C2", 0.0),
    ("O=c1cc(O)c(Cl)c[nH]1", 1.0),
    ("Nc1nc(F)nc2c1ncn2[C@@H]1O[C@H](CO)[C@@H](O)[C@@H]1O", 1.0),
]

---

# Target of assay: ATPase family AAA domain-containing protein 5 (Homo sapiens) (UniProt Q96QE3)
# Sequence (Q96QE3 whole entry, looked up, the tested form may be a part): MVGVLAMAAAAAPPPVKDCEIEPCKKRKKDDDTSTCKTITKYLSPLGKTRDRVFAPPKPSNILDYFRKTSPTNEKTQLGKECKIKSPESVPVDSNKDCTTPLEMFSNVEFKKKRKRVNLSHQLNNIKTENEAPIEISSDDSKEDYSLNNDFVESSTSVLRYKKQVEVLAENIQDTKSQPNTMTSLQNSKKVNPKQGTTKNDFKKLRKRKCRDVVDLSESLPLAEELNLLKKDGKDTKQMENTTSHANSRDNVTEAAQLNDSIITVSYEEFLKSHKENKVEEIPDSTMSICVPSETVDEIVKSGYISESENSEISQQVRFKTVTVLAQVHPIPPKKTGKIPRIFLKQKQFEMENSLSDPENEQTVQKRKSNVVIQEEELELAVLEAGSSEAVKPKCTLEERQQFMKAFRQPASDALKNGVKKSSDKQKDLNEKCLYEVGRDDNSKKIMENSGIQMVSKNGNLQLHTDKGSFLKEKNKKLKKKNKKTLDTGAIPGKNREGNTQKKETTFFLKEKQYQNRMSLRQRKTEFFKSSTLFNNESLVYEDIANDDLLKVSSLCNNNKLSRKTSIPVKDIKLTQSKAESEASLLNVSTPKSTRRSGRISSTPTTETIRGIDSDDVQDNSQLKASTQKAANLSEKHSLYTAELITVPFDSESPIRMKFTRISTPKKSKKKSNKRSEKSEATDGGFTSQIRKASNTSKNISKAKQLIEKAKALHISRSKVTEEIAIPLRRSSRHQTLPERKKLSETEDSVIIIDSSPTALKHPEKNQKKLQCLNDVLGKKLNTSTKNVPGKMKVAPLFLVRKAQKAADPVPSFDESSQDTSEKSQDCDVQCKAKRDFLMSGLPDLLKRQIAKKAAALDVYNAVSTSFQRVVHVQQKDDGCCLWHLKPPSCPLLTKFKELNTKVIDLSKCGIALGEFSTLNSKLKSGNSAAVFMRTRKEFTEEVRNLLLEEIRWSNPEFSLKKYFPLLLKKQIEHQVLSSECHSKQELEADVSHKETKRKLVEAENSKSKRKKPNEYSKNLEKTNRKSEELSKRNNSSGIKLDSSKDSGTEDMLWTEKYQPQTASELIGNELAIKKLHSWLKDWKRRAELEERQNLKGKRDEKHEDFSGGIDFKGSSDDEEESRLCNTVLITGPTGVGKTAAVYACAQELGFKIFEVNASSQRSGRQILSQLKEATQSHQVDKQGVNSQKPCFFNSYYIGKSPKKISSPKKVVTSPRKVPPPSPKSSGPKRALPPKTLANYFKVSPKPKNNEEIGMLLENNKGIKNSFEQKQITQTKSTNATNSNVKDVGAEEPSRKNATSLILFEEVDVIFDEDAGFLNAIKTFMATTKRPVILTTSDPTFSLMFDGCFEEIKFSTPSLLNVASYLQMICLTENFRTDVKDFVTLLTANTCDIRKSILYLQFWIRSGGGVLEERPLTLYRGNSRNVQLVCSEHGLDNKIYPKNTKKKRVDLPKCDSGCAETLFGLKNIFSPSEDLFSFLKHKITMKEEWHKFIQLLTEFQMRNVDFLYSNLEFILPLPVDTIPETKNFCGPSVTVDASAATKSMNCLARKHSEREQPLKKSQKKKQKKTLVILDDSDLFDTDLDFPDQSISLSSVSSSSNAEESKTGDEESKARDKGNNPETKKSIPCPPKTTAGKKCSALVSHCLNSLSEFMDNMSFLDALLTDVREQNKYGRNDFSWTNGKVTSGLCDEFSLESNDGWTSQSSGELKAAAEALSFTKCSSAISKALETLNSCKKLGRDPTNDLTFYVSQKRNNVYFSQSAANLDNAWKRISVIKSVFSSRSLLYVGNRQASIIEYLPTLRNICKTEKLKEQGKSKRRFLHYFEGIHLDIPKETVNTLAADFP
# Assay method text: Validation screen for small molecules that inhibit ELG1-dependent DNA repair in human embryonic kidney (HEK293T) cells expressing luciferase-tagged ELG1 (AID 493107); note: nearly all actives have a fitted effect of over 70% in size
# Applied conditions: HEK293T ELG1-luciferase level, luminescence, 5-fluorouridine co-treatment, 16 h; series mostly up to 46.1 µM
Results filed as inconclusive are left out. Activity calls are given as the source filed them. The call rests on the fitted dose curve; in most records, active means well fitted inhibition curve with a large enough effect; inconclusive means small, poorly fitted or top-dose-only effect, or effect the other way; inactive means flat fitted curve, though single readings scatter.
Classes used: true (active), false (inactive)

# Molecule, Label class
rows = [
    ("CCN(CC)CC#CCOC(=O)C(O)(c1ccccc1)C1CCCCC1 (stereo unspecified)", "false"),
    ("Nc1nc(N)c2nc(CNc3ccc(C(=O)NC(CCC(=O)O)C(=O)O)cc3)cnc2n1 (stereo unspecified)", "false"),
    ("NC(=O)c1cccc(N)c1", "false"),
    ("CCCCS(=N)(=O)CCC(N)C(=O)O (stereo unspecified)", "false"),
    ("CC1CC2C3CCC4=CC(=O)C=C[C@]4(C)[C@@]3(F)[C@@H](O)C[C@]2(C)[C@@]1(O)C(=O)CO (stereo partly specified)", "false"),
    ("COc1cc2nc(N3CCCN(C)CC3)nc(NC3CCN(Cc4ccccc4)CC3)c2cc1OC", "true"),
]

---

# Tested on: CP329
# Assay method text: qHTS profiling for inhibitors of Plasmodium falciparum proliferation (AID 504749); note: nearly all actives have a fitted effect of over 60% in size
# Applied conditions: P. falciparum in erythrocytes, SYBR Green DNA, 72 h; series mostly up to 28.7 µM
Records with an inconclusive call do not appear. Activity calls are given as the source filed them. The call rests on the fitted dose curve; in most records, active means well fitted inhibition curve with a large enough effect; inconclusive means small, poorly fitted or top-dose-only effect; inactive means flat fitted curve, though single readings scatter.
Classes used: active, inactive

# Compound, Target of assay, Label class
rows = [
    ("N[C@@H](C(=O)N[C@@H]1C(=O)N2C(C(=O)O)=C(Cl)CS[C@H]12)c1ccccc1", "CP329", "inactive"),
    ("N[C@@H](Cc1ccc(O)c(O)c1)C(=O)O", "CP329", "inactive"),
    ("COc1c(N2CCNC(C)C2)c(F)cc2c(=O)c(C(=O)O)cn(C3CC3)c12 (configuration not stated)", "CP329", "inactive"),
    ("NC(=O)c1cccnc1", "CP329", "inactive"),
    ("COc1ccc(-c2ccc3cc(C(=O)O)ccc3c2)cc1C12CC3CC(CC(C3)C1)C2", "CP329", "inactive"),
    ("CNS(=O)(=O)Cc1ccc2[nH]cc(CCN(C)C)c2c1", "CP329", "inactive"),
    ("CCCN[C@H]1CCc2nc(N)sc2C1", "CP329", "inactive"),
    ("CCCCOc1ccc(CC(=O)NO)cc1", "CP329", "active"),
    ("O=c1cc(O)c(Cl)c[nH]1", "CP329", "inactive"),
    ("COC(=O)Nc1nc2ccc(C(=O)c3ccccc3)cc2[nH]1", "CP329", "inactive"),
    ("COc1ccc2cc3[n+](cc2c1OC)CCc1cc2c(cc1-3)OCO2", "CP329", "active"),
    ("CC(C)(C#N)c1cc(Cn2cncn2)cc(C(C)(C)C#N)c1", "CP329", "inactive"),
]
